- Experimental system: LPAR1 (Homo sapiens)
- Construct: host or cells: U2OS
- Assay info: LPAR1 FLIPR Assay
- Assay type: cell-based
- Experimental parameters: U2OS cells stably expressing LPAR1; LPA (EC80); Calcium 6 FLIPR dye; read-out: Maximum Inhibition
Experimental readout: Emax (%)
Field: numeric (%). Do not append units.

Answered cases to consult:
COc1ccc(C(=O)N(CCCCC(=O)O)CCCc2ccccc2)cc1OC    25
COc1cc(C(=O)N(CCCc2ccc(C)o2)CCCC(C)(O)C(=O)O)cc(OC)c1C (centres unmarked)    73
COc1ccc(C(=O)N(CCCCC(=O)O)CCCc2ccccc2)cc1    7
COc1cc(OC)cc(C(=O)N(CCCCC(=O)O)CCCc2cc(F)cc(F)c2)c1    15
CCOP(=O)(O)CCCCN(CCCc1ccccc1)C(=O)c1cc(OC)cc(OC)c1    76

Q) # query: Emax of entry COc1cc(C(=O)N(CCCc2ccc(C)o2)CCCC(C)(C)C(=O)O)cc(OC)c1C
A) 100

Q) # query: Emax of entry COc1cc(C(=O)N(CCCCC(=O)NS(=O)(=O)C(F)(F)F)CCCc2ccccc2)cc(OC)c1C
A) 73

Q) # query: Emax of entry COc1cc(C(=O)N(CCCc2ccccc2)CCOC(=O)NS(C)(=O)=O)cc(OC)c1C
A) 66

---

- Experimental system: LPAR1 (Homo sapiens)
- Construct: host or cells: U2OS
- Assay info: LPAR1 FLIPR Assay
- Format: cell-based
- Experimental parameters: U2OS cells stably expressing LPAR1; LPA (EC80); Calcium 6 FLIPR dye; read-out: Maximum Inhibition
Label TRUE when Emax is at or above 90%; anything below gets FALSE.

Q) Please check the record COc1cc(OC)c(F)c(C(=O)N(CCCCC(=O)O)CCCc2ccccc2)c1 [Example 58] and state if its Emax is at or above 90%.
A) TRUE

Q) Please check the record COc1cc(C(=O)N(CCCCC(=O)O)CCCc2ccccc2F)cc(OC)c1C [Example 32] and state if its Emax is at or above 90%.
A) TRUE

Q) Please check the record COc1cc(C(=O)N(CCCc2ccccc2)CCOCC2(C(=O)O)CC2)cc(OC)c1C [Example 59] and state if its Emax is at or above 90%.
A) TRUE

Q) Please check the record CCOC1CC1(C(=O)N(CCCCC(=O)O)CCCc1ccccc1)c1ccc(OC)cc1 (stereo not shown) [Example 149] and state if its Emax is at or above 90%.
A) FALSE

Q) Please check the record COc1ccc(C2(C(=O)N(CCCCC(=O)O)CCCc3cccc(Cl)c3)CC2)cc1 [Example 102] and state if its Emax is at or above 90%.
A) FALSE

Q) Please check the record COc1cc(C(=O)N(CCCc2ccc(F)cc2F)CCSCC(=O)O)cc(OC)c1C [Example 114] and state if its Emax is at or above 90%.
A) FALSE

Q) Please check the record CCS(=O)(=O)NC(=O)CCCCN(CCCc1ccccc1)C(=O)c1cc(OC)c(C)c(OC)c1 [Example 123] and state if its Emax is at or above 90%.
A) TRUE

Q) Please check the record COc1cc(C(=O)N(CCCc2ccccc2)CCSCC(=O)O)cc(OC)c1C [Example 44] and state if its Emax is at or above 90%.
A) TRUE

Q) Please check the record CCOc1cc(C(=O)N(CCCCC(=O)O)CCCc2ccccc2)cc(OCC)c1OCC [Example 21] and state if its Emax is at or above 90%.
A) FALSE

Q) Please check the record COc1cc(C(=O)N(CCCCC(=O)O)CCCc2ccccc2)c(F)c(OC)c1F [Example 30] and state if its Emax is at or above 90%.
A) TRUE

Q) Please check the record COc1cc(C(=O)N(CCCCC(=O)O)CCCc2cccc(Cl)c2)cc(OC)c1C [Example 38] and state if its Emax is at or above 90%.
A) TRUE

Q) Please check the record COc1cc(C(=O)N(CCCCC(=O)O)CCCc2c(F)cccc2F)cc(OC)c1C [Example 147] and state if its Emax is at or above 90%.
A) TRUE

Q) Please check the record COc1cc(OC)cc(C(=O)N(CCCCC(=O)O)CCCc2ccccc2)c1 [Example 7] and state if its Emax is at or above 90%.
A) FALSE

Q) Please check the record COc1cc(C(=O)N(CCCc2ccccc2)C[C@H](O)CCC(=O)O)cc(OC)c1C [Example 120] and state if its Emax is at or above 90%.
A) FALSE

Q) Please check the record COc1cc(C(=O)N(CCCc2ccc(C)o2)CCCC(C)C(=O)O)cc(OC)c1C (stereo not shown) [Example 179] and state if its Emax is at or above 90%.
A) TRUE

Q) Please check the record COc1cc(C(=O)N(CCCCC(=O)O)CCCc2ccc(C)o2)c(F)c(OC)c1F [Example 175] and state if its Emax is at or above 90%.
A) FALSE

Q) Please check the record COc1cc(C(=O)N(C/C=C/CC(=O)O)CCCc2ccccc2)cc(OC)c1C [Example 121] and state if its Emax is at or above 90%.
A) FALSE

Q) Please check the record CCOc1cc(C(=O)N(CCCCC(=O)O)CCCc2ccccc2)ccn1 [Example 14] and state if its Emax is at or above 90%.
A) FALSE

Q) Please check the record COc1cc(C(=O)N(CCCc2ccccc2)CC(=O)NC2(C(=O)O)Cc3ccccc3C2)cc(OC)c1C [Example 1] and state if its Emax is at or above 90%.
A) FALSE

Q) Please check the record COc1cc(C(=O)N(CCCc2ccccc2)CCOCP(=O)(O)O)cc(OC)c1C [Example 50] and state if its Emax is at or above 90%.
A) TRUE

Q) Please check the record COc1cc(C(=O)N(CCCCC(=O)O)CCCc2ccc(C)o2)cc(OC)c1C1CC1 [Example 178] and state if its Emax is at or above 90%.
A) FALSE

Q) Please check the record COc1cc(C(=O)N(CCCc2ccccc2)CCCC(Cc2ccccc2)C(=O)O)cc(OC)c1C (stereo not shown) [Example 52] and state if its Emax is at or above 90%.
A) FALSE

---

Each item that follows carries a reported Emax.
- Experimental system: LPAR1 (Homo sapiens, UniProt Q92633)
- Construct: host or cells: U2OS
- Sequence (Q92633 whole entry): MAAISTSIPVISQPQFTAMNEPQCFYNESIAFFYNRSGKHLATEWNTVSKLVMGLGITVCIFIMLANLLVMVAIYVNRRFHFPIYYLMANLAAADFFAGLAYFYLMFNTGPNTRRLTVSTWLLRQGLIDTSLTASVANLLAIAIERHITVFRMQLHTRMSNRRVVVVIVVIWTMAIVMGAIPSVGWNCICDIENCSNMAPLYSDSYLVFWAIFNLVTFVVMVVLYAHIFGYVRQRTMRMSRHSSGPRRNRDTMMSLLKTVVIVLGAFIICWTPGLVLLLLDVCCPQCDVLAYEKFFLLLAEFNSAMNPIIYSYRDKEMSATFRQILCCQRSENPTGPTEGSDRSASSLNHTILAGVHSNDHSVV
- Assay info: LPAR1 FLIPR Assay
- Assay type: cell-based
- Experimental parameters: U2OS cells stably expressing LPAR1; LPA (EC80); Calcium 6 FLIPR dye; read-out: Maximum Inhibition
Field: numeric (%). Do not append units.

COc1cc(C(=O)N(CCCc2ccccc2)CC[S+]([O-])CC(=O)O)cc(OC)c1C (stereo not shown)    63
COc1cc(C(=O)N(CCCc2c(F)cccc2F)CCOCC(=O)O)cc(OC)c1C    89
O=C(O)CCCCN(CCCc1ccccc1)C(=O)C1CC(=O)Nc2cc(F)ccc21 (stereo not shown)    81
COc1cc(C(=O)N(CCCc2ccccc2)CCCC(C)C(=O)O)cc(OC)c1C (stereo not shown)    100
COc1cc(C(=O)N(CCCCC(=O)O)CCCc2ccccc2)cc(OC)c1OCCO    91

Consider the additional compound presented here.
Q) # query: Emax of entry COc1cc(OC)cc(C(=O)N(CCCc2ccccc2)CCCC(C)(C)C(=O)O)c1
A) 94

---

- Experimental system: LPAR1 (Homo sapiens)
- Construct: host or cells: U2OS
- Assay info: LPAR1 FLIPR Assay
- Format: cell-based
- Experimental parameters: U2OS cells stably expressing LPAR1; LPA (EC80); Calcium 6 FLIPR dye
Each item that follows carries a reported pIC50.
Field pIC50 (float): negative decimal logarithm of the concentration in molar.

COc1cc(C(=O)N(CCCCC(=O)NS(=O)(=O)c2ccncc2)CCCc2ccccc2)cc(OC)c1C    7.09
COc1cc(OC)c([N+](=O)[O-])c(C(=O)N(CCCCC(=O)O)CCCc2ccccc2)c1    7.15
COc1cc(OC)cc(C(=O)N(CCCCC(=O)O)CCCc2ccc(C)o2)c1    7.34
COc1cc(C(=O)N(CCCc2ccc(F)cc2F)CCSCC(=O)O)cc(OC)c1C    6.17
CCOP(=O)(O)CCCCN(CCCc1ccccc1)C(=O)c1cc(OC)cc(OC)c1    7.32

Q) # query: pIC50 of entry COc1cc(C(=O)N(CCCCC(=O)O)CCCc2ccc(C)s2)cc(OC)c1C
A) 7.66

Q) # query: pIC50 of entry COc1cc(C(=O)N(CCCc2ccc(C)o2)CCCC(C)C(=O)O)cc(OC)c1C (centres unmarked)
A) 7.34

Q) # query: pIC50 of entry Cc1cc(C(=O)N(CCCCC(=O)O)CCCc2ccccc2)c2c(C)noc2n1
A) 5.83

---

- Experimental system: LPAR1 (Homo sapiens)
- Construct: host or cells: U2OS
- Assay info: LPAR1 FLIPR Assay
- Format: cell-based
- Experimental parameters: U2OS cells stably expressing LPAR1; LPA (EC80); Calcium 6 FLIPR dye
Experimental readout: IC50

Answered cases to consult:
COc1ccc([C@@H](OC)C(=O)N(CCCCC(=O)O)CCCc2ccccc2)cc1    312 nM
COc1cc(C(=O)N(CCCc2ccccc2)CCCC(O)C(=O)O)cc(OC)c1C (stereo not shown)    37 nM
COc1cc(C(=O)N(CCCCc2nnn[nH]2)CCCc2ccccc2)cc(OC)c1C    42 nM

Q) # query: IC50 of entry COc1cc(C(=O)N(CCCc2ccccc2)C(C)CCCC(=O)O)cc(OC)c1C (stereo not shown)
A) 237 nM

// data source = patent US20190119200A1
